Data origin, for the record: the Human Domainome abundance scans (Beltran et al. 2025)

B1: Membrane-associated guanylate kinase, WW and PDZ domain-containing protein 1, residues 352 to 401; numbered along this chain, Q96QZ7 (parent)
chain: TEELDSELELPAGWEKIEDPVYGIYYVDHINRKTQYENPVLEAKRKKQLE

# Variants of: B1
# test.details: abundance fitness (aPCA) (normalised: wild type 0, dead -1); higher = more abundant; growth selection in yeast, the domain comes from the species named
# conditions: Homo sapiens
endpoint: abundance fitness
The answer should be written as a number, with no unit following it.

Field: example entries. Status: answers known.
{"variant.description": "Q35M", "abundance fitness": -0.18}
{"variant.description": "A12D", "abundance fitness": -0.09}
{"variant.description": "D28H", "abundance fitness": -0.634}
{"variant.description": "D5T", "abundance fitness": 0.059}
{"variant.description": "A43P", "abundance fitness": -0.184}
{"variant.description": "L49W", "abundance fitness": -0.239}
{"variant.description": "E42D", "abundance fitness": -0.192}
{"variant.description": "H29F", "abundance fitness": -0.682}
{"variant.description": "K16E", "abundance fitness": -0.327}
{"variant.description": "K16C", "abundance fitness": -0.245}

Problem: So what's the measured abundance fitness for this one? `K44H`
Result: -0.196

Problem: So what's the measured abundance fitness for this one? `K46R`
Result: -0.094

Problem: So what's the measured abundance fitness for this one? `Q48C`
Result: -0.134
